# Target or test system: Ubiquitin carboxyl-terminal hydrolase 1 (Homo sapiens) (UniProt O94782)
# Sequence (O94782 whole entry, looked up): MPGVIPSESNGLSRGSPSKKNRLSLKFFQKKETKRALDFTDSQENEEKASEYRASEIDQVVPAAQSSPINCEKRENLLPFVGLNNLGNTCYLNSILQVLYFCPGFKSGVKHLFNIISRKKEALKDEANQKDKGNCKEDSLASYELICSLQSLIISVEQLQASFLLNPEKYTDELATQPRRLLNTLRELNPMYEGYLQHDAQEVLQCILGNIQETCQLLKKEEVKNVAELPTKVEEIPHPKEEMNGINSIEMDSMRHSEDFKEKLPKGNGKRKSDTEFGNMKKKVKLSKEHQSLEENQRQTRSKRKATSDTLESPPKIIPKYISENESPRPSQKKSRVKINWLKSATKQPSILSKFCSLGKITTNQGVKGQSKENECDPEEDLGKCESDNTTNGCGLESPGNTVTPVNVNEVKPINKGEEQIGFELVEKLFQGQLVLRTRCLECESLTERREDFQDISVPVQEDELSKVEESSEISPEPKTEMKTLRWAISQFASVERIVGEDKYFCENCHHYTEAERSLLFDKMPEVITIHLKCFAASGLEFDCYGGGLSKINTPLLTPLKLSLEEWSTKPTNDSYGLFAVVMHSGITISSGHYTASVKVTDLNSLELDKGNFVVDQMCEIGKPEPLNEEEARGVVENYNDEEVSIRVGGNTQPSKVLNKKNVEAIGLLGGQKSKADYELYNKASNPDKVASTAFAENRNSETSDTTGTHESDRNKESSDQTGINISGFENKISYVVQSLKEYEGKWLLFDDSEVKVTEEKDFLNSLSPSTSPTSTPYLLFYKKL
# Assay explanation: Inhibitors of USP1/UAF1: Pilot qHTS (AID 504865); note: nearly all actives have a fitted effect of over 35% in size
# Condition set: purified USP1/UAF1, Ub-rhodamine cleavage fluorescence; series mostly up to 114 µM
Records with an inconclusive call do not appear. Calls of active or inactive are those of the source. Calls come from the whole dose curve; as a rule, active = well fitted inhibition curve with a large enough effect; inconclusive = small, poorly fitted or top-dose-only effect; inactive = flat fitted curve, though single readings scatter.
Outcome codes: true (1) for active, false (0) for inactive

{"Compound": "NC(=O)CN1CCCC1=O", "Label value": "false (0)"}
{"Compound": "OC(c1ccccc1)(c1ccccc1)C1CCNCC1", "Label value": "false (0)"}
{"Compound": "COC(=O)C1=CCCN(C)C1", "Label value": "false (0)"}
{"Compound": "COCC(=O)N(c1c(C)cccc1C)C(C)C(=O)OC (stereo not given)", "Label value": "false (0)"}
{"Compound": "O=C(CCCN1CCC(n2c(=O)[nH]c3ccccc32)CC1)c1ccc(F)cc1", "Label value": "false (0)"}
{"Compound": "CC(Cc1ccccc1)NCc1ccccc1Cl (stereo not given)", "Label value": "false (0)"}
{"Compound": "CCN(CC)C(C)C(=O)c1ccccc1 (stereo not given)", "Label value": "false (0)"}
{"Compound": "CN1C(=O)[C@@H](NC(=O)c2cc3ccccc3[nH]2)N=C(c2ccccc2)c2ccccc21", "Label value": "false (0)"}
{"Compound": "CN1C[C@H](C(=O)N[C@]2(C)O[C@@]3(O)[C@@H]4CCCN4C(=O)[C@H](Cc4ccccc4)N3C2=O)C[C@@H]2c3cccc4[nH]cc(c34)C[C@H]21", "Label value": "false (0)"}
{"Compound": "CNC(=O)Oc1ccc2c(c1)[C@]1(C)CCN(C)[C@@H]1N2C", "Label value": "false (0)"}
{"Compound": "Oc1c(Br)cc(Br)cc1Br", "Label value": "false (0)"}
{"Compound": "CCCCCCCCCCCCCCCC[n+]1ccccc1", "Label value": "true (1)"}
{"Compound": "C=CCOC(Cn1ccnc1)c1ccc(Cl)cc1Cl (stereo not given)", "Label value": "false (0)"}
{"Compound": "COC(=O)C1=C(C)NC(C)=C(C(=O)OC)C1c1ccccc1[N+](=O)[O-]", "Label value": "false (0)"}
{"Compound": "CC(C)NCC(O)c1ccc(N)c(C#N)c1 (stereo not given)", "Label value": "false (0)"}
{"Compound": "CN1CCc2cc(Cl)c(O)cc2[C@H]2c3ccccc3CC[C@@H]21", "Label value": "false (0)"}
{"Compound": "CCCCCCCCCCCC[N+](C)(C)CCOc1ccccc1", "Label value": "true (1)"}
{"Compound": "C[N+]1(CCC(C(N)=O)(c2ccccc2)c2ccccc2)CCCCC1", "Label value": "false (0)"}
{"Compound": "CC[n+]1c(-c2ccccc2)c2cc(N)ccc2c2ccc(N)cc21", "Label value": "true (1)"}
{"Compound": "CC(C)(C)OC(=O)c1ncn2c1[C@@H]1CCCN1C(=O)c1c(Br)cccc1-2", "Label value": "false (0)"}
{"Compound": "Nc1ccc(N)cc1", "Label value": "false (0)"}
{"Compound": "CN1C[C@@H](NS(=O)(=O)N(C)C)C[C@@H]2c3cccc4c3c(cn4C)C[C@H]21", "Label value": "false (0)"}
{"Compound": "C[C@H]1C(=O)O[C@@H]2CCN3CC=C(COC(=O)[C@](C)(O)[C@]1(C)O)[C@H]23", "Label value": "false (0)"}
{"Compound": "NCc1cccnc1", "Label value": "false (0)"}
{"Compound": "COc1ccc(CN2CCNCC2)c(OC)c1OC", "Label value": "false (0)"}
